property name: melting point

| smiles entry | meas value |
| --- | --- |
| Cc1ccc(C(=O)Nc2c(NC(=O)CN(C)CC3OCCO3)ccc3c2C(=O)c2ccccc2C3=O)cc1 | 156 to 157 °C |

Note: attention shifts to another entry.
Problem: // fetch melting point given entry O=C(CCl)Nc1ccc2c(c1NC(=O)c1ccccc1Cl)C(=O)c1ccccc1C2=O
Solution: 193 to 194 °C

###

# Test system: hTERT
# assay comment: Secreted alkaline phosphatase (SEAP) assay, PhTERT-SEAP (H1299)
# Type: cell-based
# experimental context: Homo sapiens, NCI-H1299, Conc. 100 μM, 24 hours, read-out: Relative SEAP activity (%) (converted)
# Method: H1299 were grown in RPMI 1640 media supplemented with 10% fetal bovine serum, 100 units/mL penicillin and […] streptomycin in a humidified atmosphere with 5% CO2 at 37° C. Culture media were changed every three days. […]
Each entry below carries its reported activity at 100 µM.
Please answer using a numeric value trailed by its unit.

Record excerpt, results attached:
| smiles entry | tested target | activity at 100 µM |
| --- | --- | --- |
| O=C(CCl)Nc1ccc2c(c1NC(=O)COc1ccccc1)C(=O)c1ccccc1C2=O | hTERT | 4.7% |
| Cc1ccc(C(=O)Nc2c(NC(=O)CN(C)C)ccc3c2C(=O)c2ccccc2C3=O)cc1 | hTERT | 9.61% |
| Cc1cccc(C(=O)Nc2c(NC(=O)CCl)ccc3c2C(=O)c2ccccc2C3=O)c1 | hTERT | -3.1% |
| O=C(CCCl)Nc1ccc2c(c1NC(=O)CCCl)C(=O)c1ccccc1C2=O | hTERT | 16% |
| O=C(CCl)Nc1ccc2c(c1NC(=O)c1ccccc1F)C(=O)c1ccccc1C2=O | hTERT | 2.11% |
| Cc1ccc(C(=O)Nc2c(NC(=O)CCl)ccc3c2C(=O)c2ccccc2C3=O)cc1 | hTERT | -2.47% |

Problem: Give activity at 100 µM only, for Cc1ccc(C(=O)Nc2ccc3c(c2NC(=O)c2ccc(C)cc2)C(=O)c2ccccc2C3=O)cc1 , using hTERT data.
Solution: 30.9%

Problem: Give activity at 100 µM only, for Cc1ccc(C(=O)Nc2c(NC(=O)CN(C)CCc3ccccn3)ccc3c2C(=O)c2ccccc2C3=O)cc1 , using hTERT data.
Solution: 1.47%
